- System: PC-3
- experimentNotes: NCI tumour cell line growth inhibition, 48 h
The source made the active and inactive calls. Rule as the data show it: active = GI50 up to about 1.1 µM and inactive = higher.
Assign a class; possible classes are y = active, n = inactive

# molecule, answerLabel
rows = [
    ("C=Cc1nc(C#N)c(N)o1", "n"),
    ("O=S(=O)(Nc1ccc2ccc3cccc4ccc1c2c34)c1ccccc1", "n"),
    ("CSc1nc2c(c(=O)n1C)N=C(c1ccccc1)[C@H](C(CC(=O)c1ccccc1)c1ccccc1)C(c1ccccc1)N2 (stereo partly drawn)", "n"),
]

Inquiry: Just curious, what result did `CC#Cc1cc2c(cc1O)CC[C@@H]1[C@@H]2CC[C@]2(C)[C@@H](O)CC[C@@H]12` get here?
Reply text: n

Inquiry: Any idea what this test logged for `COc1cc(CNC(=O)CCCCCCCCCCSC#N)ccc1O` ?
Reply text: n

Inquiry: Just curious, what result did `Oc1[nH]c(Nc2cccc(Cl)c2)nc2ncnc1-2` get here?
Reply text: n

Inquiry: Per the assay record, what outcome was assigned to `CCCNC(=O)c1cc(NC(=O)c2cc(NC(=O)CCS(=O)(=O)OC)cn2C)cn1C` ?
Reply text: n

Inquiry: For `NNC(=O)CC(=O)Nc1ccc(S(=O)(=O)c2ccc(NC(=O)CC(=O)NN)cc2)cc1` , what call appears in the results of this test?
Reply text: n

Inquiry: Answer briefly: the call reported for `CC(C)CNC(=O)CCc1cccc2c1oc1c(CCN)cccc12` in this assay.
Reply text: n

Inquiry: For COc1cc2cc(C(=O)N3CC(COS(C)(=O)=O)c4ccc(NC(=O)OCc5ccccc5)cc43)[nH]c2c(OC)c1OC (stereo not drawn) , what call appears in the results of this test?
Reply text: n

Inquiry: Test call for this molecule, please: `CC(=O)O[C@H]1[C@@H](N2CCN(C)CC2)C[C@H]2[C@@H]3CC=C4C[C@@H](N5CCCC5)CC[C@]4(C)[C@H]3CC[C@@]21C`
Reply text: n

Inquiry: Which outcome was assigned to N#Cc1nn(C2OC(COC(=O)c3ccccc3)C(OC(=O)c3ccccc3)C2OC(=O)c2ccccc2)c2nc[nH]c(=O)c12 (stereo not drawn) in this test?
Reply text: n

###

- Test system: HOP-92
- experimentNotes: NCI tumour cell line growth inhibition, 48 h
Calls of active or inactive are those of the source. Rule as the data show it: active = GI50 up to about 1.1 µM and inactive = higher.
attributeMeasured: GI50

Please review the following examples before continuing.
# compound, GI50
rows = [
    ("CC(=O)O[C@H]1C(=O)[C@@]2(C)[C@H]([C@H](OC(=O)c3ccccc3)[C@]3(O)C[C@H](OC(=O)[C@H](O)[C@@H](NC(=O)c4ccoc4)c4ccccc4)C(C)=C1C3(C)C)[C@]1(OC(C)=O)CO[C@@H]1C[C@@H]2O", "0.552 µM (active)"),
    ("O=c1cc2ccccc2nn1Cc1ccccc1Cl", "71.9 µM (inactive)"),
    ("c1ccc(N2CCN(CCN3CCc4c([nH]c5ccccc45)C3c3cccnc3)CC2)cc1 (configuration not stated)", "14.4 µM (inactive)"),
]

Okay, here is my list. What is GI50 for each of these?
1. O=C1c2c(O)ccc(O)c2C(=O)c2c(NCCNC(=O)C(O)C(O)C(O)C(O)CO)ccc(NCCNC(=O)C(O)C(O)C(O)C(O)CO)c21 (configuration not stated)
2. CCC1=CCC23C(=O)C=CC(=O)C2(C1)C(=O)c1cccc(OC)c1C3=O (configuration not stated)
3. C[C@@H]1CCC2[C@@H](C)[C@H](O[C@H]3O[C@@H]4O[C@@]5(C)CCC6[C@H](C)CCC([C@H]3C)[C@]64OO5)O[C@@H]3O[C@@]4(C)CCC1[C@@]23OO4 (some centres not stated)
4. CN(C(=O)C1CCCCCC1=O)c1ccccc1Cl (configuration not stated)
5. COC(=O)/C=C1\CCC2[C@@H](C(=O)CC3[C@]2(C)CCC[C@@]3(C)C(=O)OC)C1C (some centres not stated)
6. O=C(O)c1cc(O)nc(S)n1
7. CC1CCCCCC(=O)c2c(O)cc(O)cc2CC(=O)O1 (configuration not stated)

Reply text:
1: < 0.01 µM (active); 2: 15.1 µM (inactive); 3: 0.114 µM (active); 4: > 100 µM (inactive); 5: 21 µM (inactive); 6: > 100 µM (inactive); 7: > 100 µM (inactive)

Where do the numbers come from? From ChEMBL document CHEMBL1201862.
